- EXPERIMENTAL SYSTEM: hAM1R (human, UniProt Q16602)
- ASSAY COMMENT: cell-based or functional assay
Bridge positions count the residues as written; N and C are the ends. Square brackets hold non-standard residues; d marks the D form. Ends that are not written are not given here. Hyp = O=C(O)[C@@H]1C[C@@H](O)CN1; Cit = NC(=O)NCCC[C@H](N)C(=O)O
Listing of recorded hAM1R EC50 (cAMP) by entry.
MEASUREMENT NAME: hAM1R EC50 (cAMP) (µM)

GCRFGTCTVQWLAHQIYQFTDKDKDNVAPRTKISPNG[Hyp]-NH2 (disulfide 2-7 (inferred); ends not checked) [SEQ ID NO: 337] : 1.58
GCRTGTCTVQRLAHQIYQFTDKDKDNVAPRTNVGPQGY [SEQ ID NO: 109] : 2.98
GCRTGTCTVQRLAHQIYQFTDKDKDNVAPRTNISPQGY [SEQ ID NO: 199] : 2.98
KCRMGTCTVQRLAHQIYQFTDKDKDNVAPRSKISPQT[Hyp]-NH2 (disulfide 2-7 (inferred); ends not checked) [SEQ ID NO: 194] : 3.53
GCRFGTCTVQ[Cit]LAHFLYQFTDKDKDNVAPRTNVGSNTY-NH2 (disulfide 2-7 (inferred); ends not checked) [SEQ ID NO: 264] : 3.47
